# MEASUREMENT_DESCRIPTION: physchem
# STUDY_CONDITIONS: 1-octanol/aqueous buffer, pH 7.4
# Description: 1-octanol/aqueous buffer partition coefficient, log D of the compound at pH 7.4 by UV-vis/HPLC method
OUTCOME_MEASURE: logD

GIVEN_SMILES: CCCCCNc1nc(C(C)(C)C)ncc1C(=O)N(CC(C)C)[C@@H]1CNC[C@H](C(=O)N2CCOCC2)C1
logD: 4.45

GIVEN_SMILES: COCCCCn1nc(-c2ccccc2)cc1C(=O)N(CC(C)C)[C@@H]1CNC[C@H](C(=O)N2CCOCC2)C1
logD: 2.68

GIVEN_SMILES: COCCCCn1c(C(=O)N(CC(C)C)[C@@H]2CNC[C@H](CO)C2)nc2ccccc21
logD: 1.77

GIVEN_SMILES: COCCCCc1c(C(=O)N(CC(C)C)[C@@H]2CNC[C@H](C(=O)N3CCOCC3)C2)nnn1-c1ccccc1
logD: 1.94

GIVEN_SMILES: COCCCCn1c(C(=O)N(CC(C)C)[C@@H]2CNC[C@H](C(C)(C)O)C2)nc2ccccc21
logD: 1.98

GIVEN_SMILES: COCCCCn1c(C(=O)N(CC(C)C)[C@@H]2CNC[C@H](C(=O)N3CCOCC3)C2)cnc1C(C)(C)C
logD: 2.12

GIVEN_SMILES: COCCCCn1c(C(=O)N(CC(C)C)[C@@H]2CNC[C@H](C(=O)N3CCOCC3)C2)nc2ccccc21
logD: 2.11

GIVEN_SMILES: CC(C)CN(C(=O)c1nc2ccccc2n1C)[C@@H]1CNC[C@H](C(=O)N2CCOCC2)C1
logD: 1.71

[I] CC(C)CN(C(=O)c1nc2ccccc2[nH]1)[C@@H]1CNC[C@H](C(=O)N2CCOCC2)C1
[II] CCCCCCc1nc(C(C)(C)C)ncc1C(=O)N(CC(C)C)[C@@H]1CNC[C@H](C(=O)N2CCOCC2)C1
Between I and II , whose recorded logD is greater? Reply briefly: the label of your chosen item.
II

* * *

# MEASUREMENT_DESCRIPTION: Oral bioavailability in cynomolgus monkey at 1 mg/kg administered as cassette dose by LC-MS/MS analysis
# Format: ADME, organism-based, Macaca fascicularis
# STUDY_CONDITIONS: in vivo
OUTCOME_MEASURE: bioavailability (%)

[a] COCCCOc1cc(C[C@@H](C[C@H](N)[C@@H](O)C[C@H](C(=O)NCC(C)(C)C(N)=O)C(C)C)C(C)C)ccc1OC
[b] COCCCCn1c(C(=O)N(CC(C)C)[C@@H]2CNC[C@H](C(=O)N3CCOCC3)C2)nc2ccccc21
When the recorded bioavailability values are compared, which is smaller: that of a or that of b ? Reply briefly: the label of your chosen item.
a
(a: 0.6%, b: 25%)

* * *

pIC50: −log10 of the molar value.
// pIC50 collected for Renin (Homo sapiens)
OUTCOME_MEASURE: pIC50

GIVEN_SMILES: COCCCCc1c(C(=O)N(CC(C)C)[C@@H]2CNC[C@H](C(=O)N3CCOCC3)C2)nnn1-c1ccccc1
pIC50: 9.19

GIVEN_SMILES: COCCCCn1c(C(=O)N(CC(C)C)[C@@H]2CNC[C@H](C(=O)N3CCOCC3)C2)nnc1-c1ccccc1
pIC50: 8.74

GIVEN_SMILES: CCn1c(C(=O)N(CC(C)C)[C@@H]2CNC[C@H](CO)C2)nc2ccccc21
pIC50: 7.68

GIVEN_SMILES: COCCCCc1c(C(=O)N(CC(C)C)[C@@H]2CNC[C@H](C(=O)N3CCOCC3)C2)cnn1-c1ccccc1
pIC50: 8.92

GIVEN_SMILES: COCCCCn1c(C(=O)N(CC(C)C)[C@@H]2CNC[C@H](C(C)(C)O)C2)nc2ccccc21
pIC50: 8.82

GIVEN_SMILES: CC(C)CN(C(=O)c1nc2ccccc2n1C)[C@@H]1CNC[C@H](C(=O)N2CCOCC2)C1
pIC50: 9.18

GIVEN_SMILES: CC(C)CN(C(=O)c1nc2ccccc2[nH]1)[C@@H]1CNC[C@H](C(=O)N2CCOCC2)C1
pIC50: 9.23

GIVEN_SMILES: COCCCCn1c(C(=O)N(CC(C)C)[C@@H]2CNC[C@H](C(=O)N3CCOCC3)C2)ccc1-c1ccccc1
pIC50: 8.85

GIVEN_SMILES: COCCCCn1c(C(=O)N(CC(C)C)[C@@H]2CNC[C@H](C(=O)N3CCOCC3)C2)cnc1-c1ccccc1
pIC50: 8.48

GIVEN_SMILES: COCCCCc1c(C(=O)N(CC(C)C)[C@@H]2CNC[C@H](C(=O)N3CCOCC3)C2)nc2ccccn12
pIC50: 8.68

[a] COCCCCn1nc(C(C)(C)C)cc1C(=O)N(CC(C)C)[C@@H]1CNC[C@H](C(=O)N2CCOCC2)C1
[b] CCCCCNc1nc(C(C)(C)C)ncc1C(=O)N(CC(C)C)[C@@H]1CNC[C@H](C(=O)N2CCOCC2)C1
When the recorded pIC50 values are compared, which is smaller: that of a or that of b ? Reply briefly: the label of your chosen item.
a
(a: 8.44, b: 9.19)

* * *

pIC50: −log10 of the molar value.
// pIC50 collected for Renin (Homo sapiens, UniProt P00797)
OUTCOME_MEASURE: pIC50

GIVEN_SMILES: COCCCCc1c(C(=O)N(CC(C)C)[C@@H]2CNC[C@H](C(=O)N3CCOCC3)C2)ncn1-c1ccccc1
pIC50: 8.96

[P] COCCCCn1c(C(=O)N(CC(C)C)[C@H]2CCCNC2)nc2ccccc21
[Q] COCCCCn1c(C(=O)N(CC(C)C)[C@@H]2CNC[C@H](C(=O)N3CCOCC3)C2)cnc1C(C)(C)C
Between P and Q , whose recorded pIC50 is greater? Reply briefly: the label of your chosen item.
P

* * *

# MEASUREMENT_DESCRIPTION: in vivo
# STUDY_CONDITIONS: rat, iv
# Description: Clearance in rat at 0.1 mg/kg, iv or 1 mg/kg, po administered as cassette dose by LC-MS/MS analysis
OUTCOME_MEASURE: clearance (mL/min/kg)

GIVEN_SMILES: COCCCCn1c(C(=O)N(CC(C)C)[C@@H]2CNC[C@H](CO)C2)nc2ccccc21
clearance, mL/min/kg: 15.5
--
GIVEN_SMILES: CC(C)CN(C(=O)c1nc2ccccc2n1C)[C@@H]1CNC[C@H](C(=O)N2CCOCC2)C1
clearance, mL/min/kg: 38.9
--
GIVEN_SMILES: COCCCCc1c(C(=O)N(CC(C)C)[C@@H]2CNC[C@H](C(=O)N3CCOCC3)C2)ncn1-c1ccccc1
clearance, mL/min/kg: 127
--
GIVEN_SMILES: COCCCCn1c(C(=O)N(CC(C)C)[C@@H]2CNC[C@H](C(=O)N3CCOCC3)C2)nc2ccccc21
clearance, mL/min/kg: 25.9
--
GIVEN_SMILES: COCCCCn1c(C(=O)N(CC(C)C)[C@H]2CCCNC2)nc2ccccc21
clearance, mL/min/kg: 33

[a] COCCCCc1c(C(=O)N(CC(C)C)[C@@H]2CNC[C@H](C(=O)N3CCOCC3)C2)nc2ccccn12
[b] CCCCCNc1nc(C(C)(C)C)ncc1C(=O)N(CC(C)C)[C@@H]1CNC[C@H](C(=O)N2CCOCC2)C1
When the recorded clearance values are compared, which is smaller: that of a or that of b ? Reply briefly: the label of your chosen item.
a

* * *

# ASSAY_SYSTEM: Renin (Macaca mulatta, UniProt Q6DLW5)
# Sequence (Q6DLW5 whole entry): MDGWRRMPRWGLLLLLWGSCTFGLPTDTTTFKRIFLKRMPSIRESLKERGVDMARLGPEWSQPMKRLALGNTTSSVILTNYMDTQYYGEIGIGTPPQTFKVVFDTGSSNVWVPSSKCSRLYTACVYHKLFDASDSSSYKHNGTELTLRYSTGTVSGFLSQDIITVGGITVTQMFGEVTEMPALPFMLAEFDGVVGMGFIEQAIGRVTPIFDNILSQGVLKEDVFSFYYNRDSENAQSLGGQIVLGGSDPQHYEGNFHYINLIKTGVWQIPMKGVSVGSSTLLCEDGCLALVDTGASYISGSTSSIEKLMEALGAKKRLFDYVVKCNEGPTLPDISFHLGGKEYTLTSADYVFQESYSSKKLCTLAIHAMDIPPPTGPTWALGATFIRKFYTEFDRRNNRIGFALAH
OUTCOME_MEASURE: pIC50
Note: pIC50 values are expressed as the negative base-10 logarithm of concentration in M.

Form field: reported pIC50 of COCCCCn1c(C(=O)N(CC(C)C)[C@@H]2CNC[C@H](C(=O)N3CCOCC3)C2)nc2ccccc21
8.82

* * *

# MEASUREMENT_DESCRIPTION: AUC in cynomolgus monkey at 0.1 mg/kg, iv administered as cassette dose by LC-MS/MS analysis
# Assay type: ADME, organism-based, Macaca fascicularis
# STUDY_CONDITIONS: in vivo
OUTCOME_MEASURE: AUC (ng·h/mL)

[1] COCCCOc1cc(C[C@@H](C[C@H](N)[C@@H](O)C[C@H](C(=O)NCC(C)(C)C(N)=O)C(C)C)C(C)C)ccc1OC
[2] COCCCCn1c(C(=O)N(CC(C)C)[C@@H]2CNC[C@H](C(=O)N3CCOCC3)C2)nc2ccccc21
When the recorded AUC values are compared, which is smaller: that of 1 or that of 2 ? Reply briefly: the label of your chosen item.
2

* * *

# MEASUREMENT_DESCRIPTION: in vivo
# STUDY_CONDITIONS: rat, po, 1 mg/kg
OUTCOME_MEASURE: AUC (ng·h/mL)

GIVEN_SMILES: CC(C)CN(C(=O)c1nc2ccccc2n1C)[C@@H]1CNC[C@H](C(=O)N2CCOCC2)C1
OUTCOME_MEASURE: AUC
UNIT_TEXT: ng·h/mL
RECORDED_VALUE: 74.2
--
GIVEN_SMILES: COCCCCn1c(C(=O)N(CC(C)C)[C@@H]2CNC[C@H](C(=O)N3CCOCC3)C2)nc2ccccc21
OUTCOME_MEASURE: AUC
UNIT_TEXT: ng·h/mL
RECORDED_VALUE: 92.2
--
GIVEN_SMILES: COCCCCc1c(C(=O)N(CC(C)C)[C@@H]2CNC[C@H](C(=O)N3CCOCC3)C2)nc2ccccn12
OUTCOME_MEASURE: AUC
UNIT_TEXT: ng·h/mL
RECORDED_VALUE: 9.5

[A] COCCCCn1c(C(=O)N(CC(C)C)[C@H]2CCCNC2)nc2ccccc21
[B] CC(C)CN(C(=O)c1nc2ccccc2[nH]1)[C@@H]1CNC[C@H](C(=O)N2CCOCC2)C1
When the recorded AUC values are compared, which is smaller: that of A or that of B ? Reply briefly: the label of your chosen item.
B
